# System under test: UniProtKB Q9GZQ6
# Sequence (Q9GZQ6 whole entry): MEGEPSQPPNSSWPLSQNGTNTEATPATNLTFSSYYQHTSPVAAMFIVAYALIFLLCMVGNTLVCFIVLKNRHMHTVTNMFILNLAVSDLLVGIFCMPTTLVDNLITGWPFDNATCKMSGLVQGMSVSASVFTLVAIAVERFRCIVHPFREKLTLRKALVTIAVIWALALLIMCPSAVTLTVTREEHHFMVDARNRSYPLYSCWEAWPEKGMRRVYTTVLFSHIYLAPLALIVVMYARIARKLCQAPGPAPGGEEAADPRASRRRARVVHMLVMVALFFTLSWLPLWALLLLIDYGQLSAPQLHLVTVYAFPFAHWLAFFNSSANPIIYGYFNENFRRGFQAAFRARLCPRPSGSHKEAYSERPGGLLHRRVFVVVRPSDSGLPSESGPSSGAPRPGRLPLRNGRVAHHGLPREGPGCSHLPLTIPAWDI
# Procedure summary: Antagonist activity at human NPFFR1 expressed in CHO cell membrane assessed as inhibition of NPVF induced cAMP response at 5 uM incubated for 1 hr by Topcount counting method relative to control
# Assay type: functional, cell membranes
# Parameters: scale not given: the % may be the effect or the level left
# Condition context: filed as antagonist
Numbered stars: 1 amine (or outer) side, 2 acyl side, 3 side chain; on linkers, the order of the positions; unused ones are H or OH. Square brackets hold non-standard residues; d marks the D form. Peptide text beside a SMILES is read from it. Nva(5-(4-Bn-piperidin-1-yl)) = N[C@@H](CCCN1CCC(Cc2ccccc2)CC1)C(=O)O; X1 = O=C1[C@@H](N[*:1])Cc2ccccc2CN1CCC(=O)[*:2]; Dmt = Cc1cc(O)cc(C)c1C[C@H](N)C(=O)O; dNMeA = CN[C@H](C)C(=O)O
Endpoint name: Activity (%)

1) Cc1cc(O)cc(C)c1C[C@H](NC(=N)N)C(=O)N[C@H](CCCNC(=N)N)C(=O)N[C@H]1Cc2ccccc2CN(CCC(=O)N[C@@H](CCCN2CCC(Cc3ccccc3)CC2)C(=O)N[C@@H](Cc2ccccc2)C(N)=O)C1=O :: 65
2) Cc1cc(O)cc(C)c1C[C@H](N)C(=O)N(C)[C@H](C)C(=O)N[C@H]1Cc2ccccc2CN(CCC(=O)N[C@@H](CCCN2CCC(Cc3ccccc3)CC2)C(=O)N[C@@H](Cc2ccccc2)C(N)=O)C1=O (H-[Dmt][dNMeA][X1][Nva(5-(4-Bn-piperidin-1-yl))]F-NH2) :: 75
3) Cc1cc(O)cc(C)c1C[C@H](N)C(=O)N[C@H](CCCNC(=N)N)C(=O)N[C@H]1Cc2c(ccc3ccccc23)CN(CC(=O)N[C@@H](CCCN2CCC(Cc3ccccc3)CC2)C(=O)N[C@@H](Cc2c[nH]c3ccccc23)C(N)=O)C1=O :: 62
4) Cc1cc(O)cc(C)c1C[C@H](N)C(=O)N1CCC[C@@H]1C(=O)N[C@H]1Cc2ccccc2CN(CCC(=O)N[C@@H](CCCN2CCC(Cc3ccccc3)CC2)C(=O)N[C@@H](Cc2ccccc2)C(N)=O)C1=O (H-[Dmt][dP][X1][Nva(5-(4-Bn-piperidin-1-yl))]F-NH2) :: 75
5) Cc1cc(O)cc(C)c1C[C@H](N)C(=O)N[C@H](CCCNC(=N)N)C(=O)N[C@H]1Cc2ccccc2CN(CCC(=O)N[C@@H](CCCN2CCC(Cc3ccccc3)CC2)C(=O)N[C@@H](Cc2ccccc2)C(N)=O)C1=O :: 62
6) Cc1cc(O)cc(C)c1C[C@H](N)C(=O)N[C@H](CCCNC(=N)N)C(=O)N[C@H]1Cc2c(ccc3ccccc23)CN(CC(=O)N[C@@H](CCCN2CCC(Cc3ccccc3)CC2)C(=O)N[C@H](C(N)=O)C(C)C)C1=O :: 51

Data origin, for the record: ChEMBL document CHEMBL5506024
